# target-or-system: Histone deacetylase 8 (Homo sapiens, UniProt Q9BY41)
# Sequence (Q9BY41 whole entry): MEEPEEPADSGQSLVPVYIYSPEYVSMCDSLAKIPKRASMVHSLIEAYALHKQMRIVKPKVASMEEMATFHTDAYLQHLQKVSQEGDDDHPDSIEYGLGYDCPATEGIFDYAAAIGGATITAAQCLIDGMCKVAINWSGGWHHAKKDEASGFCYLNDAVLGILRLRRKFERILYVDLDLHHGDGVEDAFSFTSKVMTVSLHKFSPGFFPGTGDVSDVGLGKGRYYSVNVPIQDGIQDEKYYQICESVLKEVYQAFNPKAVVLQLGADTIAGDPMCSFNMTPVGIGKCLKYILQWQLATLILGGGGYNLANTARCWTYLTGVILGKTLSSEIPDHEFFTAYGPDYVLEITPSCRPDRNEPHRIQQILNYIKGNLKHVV
# assay-protocol: Inhibition of human recombinant HDAC8 using Arg-His-Lys(Ac)-Lys(Ac)-AMC as substrate after 30 mins by trypsin-coupled fluorogenic assay
pIC50: −log10 of the molar value.
metric: pIC50

[a] CCC(=O)CCCCC[C@@H]1NC(=O)[C@H](C)N(C)C(=O)C[C@H](CC(C)C)NC(=O)[C@H](Cc2c[nH]c3ccccc23)NC1=O
[b] CCC(=O)CCCCC[C@@H]1NC(=O)[C@H](CCCNC(=N)N)NC(=O)CCN(CC(C)C)C(=O)CN(CCc2c[nH]c3ccccc23)C1=O
Of a and b , which shows the smaller pIC50 value? Write down the label of the entry you select.
a
(a: 5.66, b: 6.12)
